Hi there, I'd appreciate the recorded melting point for every entry that follows.

Consider the worked cases shown below.
CC(C)C[C@H](N)C(=O)NS(=O)(=O)c1cccc(-c2ccnc(O)n2)c1 :: 191 to 221 °C (dec.)
CC(C)C[C@H](N)C(=O)NS(=O)(=O)c1ccccc1-c1ccccc1 :: 143 °C (dec.)
CC(C)C[C@H](N)C(=O)NS(=O)(=O)c1ccc2ccccc2c1 :: 215 °C (dec.)
CC(C)C[C@H](N)C(=O)NS(=O)(=O)c1cccc(-c2ccccc2)c1 :: 149 °C (dec.)
CC(C)C[C@H](N)C(=O)NS(=O)(=O)c1ccc(Oc2ccccc2)cc1 :: 224 to 225 °C
Cc1cc(-c2cccc(S(=O)(=O)NC(=O)[C@@H](N)CC(C)C)c2)nc(N)n1 :: 241 to 242 °C (dec.)
CC(C)C[C@H](N)C(=O)NS(=O)(=O)c1ccc(-c2ccccc2)cc1 :: 212 °C (dec.)

Which melting point value is on record for CC[C@H](C)[C@H](N)C(=O)NS(=O)(=O)c1ccc2ccccc2c1 ?
229.7 °C

---

Exercise: for every item that follows, state its recorded melting point.

// known answers, use as guide
CC(C)C[C@H](N)C(=O)NS(=O)(=O)c1cccc(-c2cc(-c3ccccc3)nc(N)n2)c1 [Compound 5.41] :: 186 to 188 °C (dec.)
CC(C)C[C@H](N)C(=O)NS(=O)(=O)c1ccc(O)c2ccccc12 [Compound 5.23] :: 250 to 252 °C
CC(C)C[C@H](N)C(=O)NS(=O)(=O)c1cccc(-c2ccnc(Cl)n2)c1 [Compound 5.49] :: 231 to 238 °C (dec.)
CC(C)C[C@H](N)C(=O)NS(=O)(=O)c1cccc(-c2cc(N)nc(N)n2)c1 [Compound 5.45] :: 234 °C (dec.)
CC(C)C[C@H](N)C(=O)NS(=O)(=O)c1cccc2ccncc12 [Compound 5.21] :: 55 to 57 °C

Quick batch: melting point for everything below.
1. N[C@@H](CC1CC1)C(=O)NS(=O)(=O)c1cccc(-c2ccccc2)c1 (racemic) [Compound 5.10]
2. CC[C@H](C)[C@H](N)C(=O)NS(=O)(=O)c1cccc(-c2cc(C)nc(N)n2)c1 [Compound 5.40]
3. CC(C)C[C@H](N)C(=O)NS(=O)(=O)c1cccc(-c2nc(N)nc3nc[nH]c23)c1 [Compound 5.38]
4. Cc1cc(-c2cccc(S(=O)(=O)NC(=O)[C@@H](N)C3CC3)c2)nc(N)n1 [Compound 5.33]
5. CC(C)C[C@H](N)C(=O)NS(=O)(=O)c1cccc(-c2ccnc(N)n2)c1 [Compound 5.37]
6. CC(C)C[C@H](N)C(=O)NS(=O)(=O)c1ccccn1 [Compound 5.20]

214.4 °C
97 °C
117 °C (dec.)
158 °C (dec.)
224 to 226 °C (dec.)
203 to 205 °C

---

target: SauVRS (valyl-tRNA synthetase from Staphylococcus aureus) (Staphylococcus aureus); construct: made in house; host or cells: Escherichia coli M15; assay: aaRS aminoacylation assay (ATP consumption), SauVRS; type: biochemical; conditions: i.a. = inactive at a concentration below 50 uM
Sequence (Q2FXR8 whole entry): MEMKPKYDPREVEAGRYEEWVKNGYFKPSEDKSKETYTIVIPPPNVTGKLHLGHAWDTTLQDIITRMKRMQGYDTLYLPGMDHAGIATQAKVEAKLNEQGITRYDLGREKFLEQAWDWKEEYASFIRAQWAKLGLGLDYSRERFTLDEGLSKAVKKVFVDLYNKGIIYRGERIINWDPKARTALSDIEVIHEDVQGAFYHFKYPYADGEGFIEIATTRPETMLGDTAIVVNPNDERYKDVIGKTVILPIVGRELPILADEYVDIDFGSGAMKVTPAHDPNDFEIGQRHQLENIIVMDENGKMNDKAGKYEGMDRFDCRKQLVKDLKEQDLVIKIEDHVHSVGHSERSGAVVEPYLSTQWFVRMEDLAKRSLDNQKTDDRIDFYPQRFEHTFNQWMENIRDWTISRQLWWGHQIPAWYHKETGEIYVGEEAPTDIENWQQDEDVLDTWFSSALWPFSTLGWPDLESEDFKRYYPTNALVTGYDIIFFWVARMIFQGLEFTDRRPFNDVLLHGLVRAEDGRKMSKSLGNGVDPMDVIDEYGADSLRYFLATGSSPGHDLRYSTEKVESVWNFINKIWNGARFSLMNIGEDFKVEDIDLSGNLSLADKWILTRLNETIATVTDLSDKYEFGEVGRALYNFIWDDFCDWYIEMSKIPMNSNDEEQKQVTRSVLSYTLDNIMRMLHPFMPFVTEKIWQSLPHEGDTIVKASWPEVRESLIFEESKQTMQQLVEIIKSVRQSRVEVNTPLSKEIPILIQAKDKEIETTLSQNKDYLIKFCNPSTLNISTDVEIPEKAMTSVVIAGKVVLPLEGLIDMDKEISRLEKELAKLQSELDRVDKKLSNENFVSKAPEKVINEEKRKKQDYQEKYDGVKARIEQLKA
Counter-ions that a name gives are not always drawn.
ATTRIBUTE_MEASURED: IC50 SauVRS

Examples with their reported IC50 SauVRS follow.
Cc1cc(-c2cccc(S(=O)(=O)NC(=O)[C@@H](N)CC(C)C)c2)ncn1 :: i.a.
CC(C)C[C@H](N)C(=O)NS(=O)(=O)c1cccc(-c2cccc(N)n2)c1 :: i.a.
N[C@@H](CC1CC1)C(=O)NS(=O)(=O)c1cccc(-c2ccccc2)c1 (racemic) :: i.a
CC(C)C[C@H](N)C(=O)NS(=O)(=O)c1ccc(Br)c2ccncc12 [Compound 5.22, trifluoroacetate] :: i.a
CC(C)C[C@H](N)C(=O)NS(=O)(=O)c1cccc(-c2ccncc2)c1 :: i.a.

Entry CC[C@H](C)[C@H](N)C(=O)NS(=O)(=O)c1ccc2ccccc2c1 : reported IC50 SauVRS = ?
i.a

All figures here come from patent US11072581B2.
